Measured on: recombinant human RACK1 protein (Homo sapiens)
Construct: commercial recombinant protein
Assay comment: surface plasmon resonance, bigelovin loaded on CM5 chip, RACK1 flowed over
Condition context: PBS pH 7.4, 0.05% Tween-20, 22 °C; covalent, Cys168

Chemical structure	Kd / µM
C=C1C(=O)O[C@H]2C[C@@H](C)[C@@H]3C=CC(=O)[C@@]3(C)[C@@H](OC(C)=O)[C@H]12	0.24
